- ASSAY_REMARKS: pH of organic amine stabilizers (Table 1, mostly determined experimentally)
- Type: physicochemical
- EXPERIMENTAL_SETUP: pH in water, some from the literature
- Excerpt: The fluid also comprises an organic amine stabilizing agent that has a first pKa or a pH in water of at least about 9.5. The organic amine preferably has from 1-20 carbon atoms, more preferably 1-10 carbon atoms. […] Table 1 below lists a number of organic amines that can be used as stabilizers in the present invention. The pKa values in the table are from the literature; the pH values in the table were mostly determined experimentally, although some were taken from the literature.
pH values for the compounds below.

COMPOUND	pH
NCCN(CCN)CCN	11.25
NCCCOCCOCCCN	11.58
CCCCCCCCCCCCN	10.22
CCN(O)CC [DHA, N,N-diethylhydroxylamine]	11.06
NCCCNCCNCCCN	11.72
NCCNCCNCCNCCN	11.29
CC(COCCCN)COCCCN	11.41
NCCCOCCCCOCCCN	11.55
NCCNCCN	11.42
